- target.or.system: HSV-1 ribonucleotide reductase (Human herpesvirus 1)
- Construct: HSV-1 ribonucleotide reductase (partially purified) was obtained from quiescent BHK-21/C13 cells infected with strain F HSV-1 virus; partially purified
- Sequence (P08543 whole entry): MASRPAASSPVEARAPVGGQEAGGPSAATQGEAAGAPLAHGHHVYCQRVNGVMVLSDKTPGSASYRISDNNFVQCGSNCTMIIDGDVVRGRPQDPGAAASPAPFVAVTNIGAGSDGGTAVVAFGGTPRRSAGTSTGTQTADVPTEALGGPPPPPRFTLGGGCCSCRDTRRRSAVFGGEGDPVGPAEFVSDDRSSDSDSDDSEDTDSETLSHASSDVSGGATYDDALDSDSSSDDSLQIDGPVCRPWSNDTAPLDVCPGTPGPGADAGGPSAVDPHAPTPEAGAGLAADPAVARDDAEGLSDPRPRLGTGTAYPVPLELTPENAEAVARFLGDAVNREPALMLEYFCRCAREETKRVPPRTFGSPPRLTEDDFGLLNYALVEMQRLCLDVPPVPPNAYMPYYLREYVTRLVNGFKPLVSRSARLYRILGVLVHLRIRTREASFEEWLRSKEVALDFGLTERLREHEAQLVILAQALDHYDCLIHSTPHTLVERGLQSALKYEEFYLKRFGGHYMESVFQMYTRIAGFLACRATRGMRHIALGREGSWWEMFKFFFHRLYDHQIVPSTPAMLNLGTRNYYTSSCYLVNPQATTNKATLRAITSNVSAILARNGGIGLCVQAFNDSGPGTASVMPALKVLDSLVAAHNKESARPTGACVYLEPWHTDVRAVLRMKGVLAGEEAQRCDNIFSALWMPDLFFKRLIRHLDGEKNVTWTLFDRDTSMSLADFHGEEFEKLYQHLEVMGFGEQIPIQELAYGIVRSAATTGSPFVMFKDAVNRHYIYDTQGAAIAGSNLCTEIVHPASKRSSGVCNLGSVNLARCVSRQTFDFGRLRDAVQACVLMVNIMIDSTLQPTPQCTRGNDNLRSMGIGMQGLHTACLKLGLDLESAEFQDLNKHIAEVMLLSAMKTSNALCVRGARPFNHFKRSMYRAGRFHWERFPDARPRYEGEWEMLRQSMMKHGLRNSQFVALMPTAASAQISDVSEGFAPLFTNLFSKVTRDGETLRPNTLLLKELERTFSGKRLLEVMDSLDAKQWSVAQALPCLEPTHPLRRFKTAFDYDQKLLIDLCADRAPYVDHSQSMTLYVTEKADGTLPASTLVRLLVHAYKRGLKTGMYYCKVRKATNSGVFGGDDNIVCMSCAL
- assay.procedure: biochemical
- measurement.parameters: IC50, concentration producing 50% of the maximal inhibition of enzyme activity; partially purified enzyme; mean of four assays
property.measured: pIC50
Entry type: numeric. Quantity: pIC50, the -log10 of concentration in molar units.

Study these solved cases before continuing.
| molecule | target.or.system | property.measured | observed |
| --- | --- | --- | --- |
| CCC(CC)NC(=O)CCC(=O)N[C@@H](CC(=O)N1CCC(C)CC(C)(C)C1)C(=O)N[C@@H](CC(=O)O)C(=O)N[C@@H](CC(C)C)C(=O)O (stereo partly drawn) | HSV-1 ribonucleotide reductase (Human herpesvirus 1) | pIC50 | 4.92 |
| CCC(CC)NC(=O)CCC(=O)N[C@@H](CC(=O)OC1CCCCC1)C(=O)N[C@@H](CC(=O)O)C(=O)N[C@@H](CC(C)C)C(=O)O | HSV-1 ribonucleotide reductase (Human herpesvirus 1) | pIC50 | 4.12 |
| CCC(CC)NC(=O)/C=C\C(=O)N[C@@H](CC(=O)N1CCCC1)C(=O)N[C@@H](CC(=O)O)C(=O)N[C@@H](CC(C)C)C(=O)O | HSV-1 ribonucleotide reductase (Human herpesvirus 1) | pIC50 | 4.68 |
| CCCCCCCC(=O)C[C@H](NC(=O)CCC(=O)NC(CC)CC)C(=O)N[C@@H](CC(=O)O)C(=O)N[C@@H](CC(C)C)C(=O)O | HSV-1 ribonucleotide reductase (Human herpesvirus 1) | pIC50 | 5.05 |
| CCC(CC)NC(=O)CCC(=O)N[C@@H](CC(=O)N1CCCC1)C(=O)N[C@H](C(=O)N[C@H](CO)CC(C)C)C1(C(=O)O)CCC1 | HSV-1 ribonucleotide reductase (Human herpesvirus 1) | pIC50 | 5.30 |

We next turn to a different molecule, shown below.
Bench note, HSV-1 ribonucleotide reductase (Human herpesvirus 1): CCC(CC)NC(=O)CCC(=O)N[C@@H](CC(=O)OCCCCCl)C(=O)N[C@@H](CC(=O)O)C(=O)N[C@@H](CC(C)C)C(=O)O , pIC50 reads 4.70

----------
- target.or.system: HSV-1 ribonucleotide reductase (Human herpesvirus 1)
- Construct: HSV-1 ribonucleotide reductase (partially purified) was obtained from quiescent BHK-21/C13 cells infected with strain F HSV-1 virus; partially purified
- assay.procedure: biochemical
- measurement.parameters: IC50, concentration producing 50% of the maximal inhibition of enzyme activity; partially purified enzyme; mean of four assays
Numbered stars: 1 amine (or outer) side, 2 acyl side, 3 side chain; on linkers, the order of the positions; unused ones are H or OH. Peptide text beside a SMILES is read from it. * marks the point of attachment. Suc = O=C(CCC(=O)[*:2])[*:1]; Pyrrolidide = C1CCN(*)C1; NHiPr = CC(C)N*
# maps each entry to its pIC50
The quantity pIC50 is defined as the negative base-10 logarithm of the molar concentration.

Examples with answers:
| compound | pIC50 |
| --- | --- |
| CCC(CC)NC(=O)C[C@H](C(=O)N[C@@H](CC(=O)N1CCCC1)C(=O)N[C@H](C(=O)N[C@@H](CC(C)(C)C)C(=O)O)C1(C(=O)O)CCCC1)C(C)(C)C [Title Compound of Example 11] | 6.77 |
| CCC(CC)NC(=O)CCC(=O)N(C)[C@@H](CC(=O)N1CCCC1)C(=O)N[C@@H](CC(=O)O)C(=O)N[C@@H](CC(C)C)C(=O)O | 5.70 |
| CCC(CC)NC(=O)CCC(=O)N[C@@H](CC(=O)N(C)CCO)C(=O)N[C@@H](CC(=O)O)C(=O)N[C@@H](CC(C)C)C(=O)O | 4.96 |
| CCC(CC)NC(=O)CCC(=O)N[C@@H](CC(=O)N1CCCC1)C(=O)N[C@H](C(=O)NCCC(C)(C)C)C(C)(C)C(=O)O | 4.12 |

Briefly, pIC50 measured for CCC(CC)NC(=O)CCC(=O)N[C@@H](CC(=O)N(C)CCOC(C)=O)C(=O)N[C@@H](CC(=O)O)C(=O)N[C@@H](CC(C)C)C(=O)O : 5.00

Entry CCCCCCCCN(C)C(=O)C[C@H](NC(=O)CCC(=O)NC(CC)CC)C(=O)N[C@H](C(=O)N[C@@H](CC(C)C)C(=O)O)C1(C(=O)O)CCCC1 — recorded pIC50 = 6.14

Record CC(C)C[C@H](NC(=O)[C@H](CC(=O)O)NC(=O)[C@H](CC(=O)N1CCCC1)NC(=O)CCC(=O)NC(C)C)C(=O)O ({NHiPr-Suc}-Asp(Pyrrolidide)-Asp-Leu-OH) . Reported pIC50: 4.74

// pIC50 lookup, compound = CC(C)CNC(=O)CCC(=O)N[C@@H](CC(=O)N1CCCC1)C(=O)N[C@@H](CC(=O)O)C(=O)N[C@@H](CC(C)C)C(=O)O , result: 4.12
